procedure_text: Metabolic stability in rat liver microsomes assessed as compound remaining at 2 uM after 30 mins incubation by LC-MS/MS analysis
Field: remaining at 0.5 h, 2 µM. Provide a value for each of the compounds that follow.
Note: unit % is implicit; provide only the numeric part.

Item under review: `CCCCCCCCCCCCCCCCC(=O)N[C@@H](CCCNC(=N)N)C(=O)NCCCN[C@H](C(=O)NCCCCNC(=N)N)[C@H](O[C@@H]1O[C@H](CN)[C@@H](O)[C@H]1O)[C@H]1O[C@@H](n2ccc(=O)[nH]c2=O)[C@H](O)[C@@H]1O` . Reported remaining at 0.5 h, 2 µM?
69.8

Note, next up: `CCCCCCCCCCCCCCCCC(=O)N[C@@H](CCCNC(=N)N)C(=O)NCCCN[C@H](C(=O)O)[C@H](O[C@@H]1O[C@H](CN)[C@@H](O)[C@H]1O)[C@H]1O[C@@H](n2ccc(=O)[nH]c2=O)[C@H](O)[C@@H]1O`
81.1

---

For each of the molecules below, state its IC50.
procedure_text: Inhibition of Staphylococcus aureus MraY by fluorescence assay
A number alone suffices; assume nM.

Entry `CCCCCCCCCCCCCCC[C@H](NC(=O)[C@@H](N)CCCSC)C(=O)NCCCN[C@H](C(=O)O)[C@H](O[C@@H]1O[C@H](CN)[C@@H](O)[C@H]1O)[C@H]1O[C@@H](n2ccc(=O)[nH]c2=O)[C@H](O)[C@@H]1O` : reported IC50 = ?
8.5

// repeat for `CCCCCCCCCCCCCCC[C@H](NC(=O)[C@@H](N)CCCNC(=N)N)C(=O)NCCCN[C@H](C(=O)O)[C@H](O[C@@H]1O[C@H](CN)[C@@H](O)[C@H]1O)[C@H]1O[C@@H](n2ccc(=O)[nH]c2=O)[C@H](O)[C@@H]1O` and report
2.2

---

Answer each item with its documented IC50.
procedure_text: Inhibition of Staphylococcus aureus MraY by fluorescence assay
Just the number please, in nM, no unit attached.

Returns the measured IC50 for the input compound. Input: `CCCCCCCCCCCCCCC[C@H](NC(=O)[C@@H](NC(=O)N[C@H](C(=O)O)C(C)C)[C@@H]1CCNC(=N)N1)C(=O)NCCCN[C@H](C(=O)O)[C@H](O[C@@H]1O[C@H](CN)[C@@H](O)[C@H]1O)[C@H]1O[C@@H](n2ccc(=O)[nH]c2=O)[C@H](O)[C@@H]1O`
1.1

// repeat for `CCCCCCCCCCCCCCC[C@H](NC(=O)c1ccnnc1)C(=O)NCCCN[C@H](C(=O)O)[C@H](O[C@@H]1O[C@H](CN)[C@@H](O)[C@H]1O)[C@H]1O[C@@H](n2ccc(=O)[nH]c2=O)[C@H](O)[C@@H]1O` and report
13.5

---

procedure_text: Inhibition of Staphylococcus aureus MraY by fluorescence assay
measurement_kind: pIC50
The value called pIC50 is obtained by taking minus log10 of the concentration in mol/L.

Name the reported pIC50 value associated with the molecule `CC(C)CCCC(=O)N[C@@H](CCCNC(=N)N)C(=O)NCCCN[C@H](C(=O)O)[C@H](O[C@@H]1O[C@H](CN)[C@@H](O)[C@H]1O)[C@H]1O[C@@H](n2ccc(=O)[nH]c2=O)[C@H](O)[C@@H]1O`
6.65

Likewise for `CCCCCCCCC(=O)NCCCCCC(=O)NCCCN[C@H](C(=O)O)[C@H](O[C@@H]1O[C@H](CN)[C@@H](O)[C@H]1O)[C@H]1O[C@@H](n2ccc(=O)[nH]c2=O)[C@H](O)[C@@H]1O` ?
7.01

Next molecule up: `CCCCCCCCCCCCCC(=O)N[C@@H](CCCNC(=N)N)C(=O)NCCCN[C@H](C(=O)O)[C@H](O[C@@H]1O[C@H](CN)[C@@H](O)[C@H]1O)[C@H]1O[C@@H](n2ccc(=O)[nH]c2=O)[C@H](O)[C@@H]1O`
8.68

Repeat with `CCCCCCCCCCCCCCCCC(=O)N[C@@H](CCCNC(=N)N)C(=O)NCCCN[C@H](C(=O)O)[C@H](O[C@@H]1O[C@H](CN)[C@@H](O)[C@H]1O)[C@H]1O[C@@H](n2ccc(=O)[nH]c2=O)[C@H](O)[C@@H]1O`
8.80

---

Tested on: Pseudomonas aeruginosa
procedure_text: Antibacterial activity against Pseudomonas aeruginosa YY165 deltamexB mutant assessed as growth inhibition after 20 hrs by microdilution method
Assay type: functional
condition_notes: YY165, 20 h
Please respond with reported MIC for every item in the list.

// fetch Pseudomonas aeruginosa MIC for `CCCCCCCCCCCCCCC[C@H](NC(=O)c1ccccc1)C(=O)NCCCN[C@H](C(=O)O)[C@H](O[C@@H]1O[C@H](CN)[C@@H](O)[C@H]1O)[C@H]1O[C@@H](n2ccc(=O)[nH]c2=O)[C@H](O)[C@@H]1O`
> 64 mg/L

Same lookup for `CCCCCCCCCCCCCCC[C@H](NC(=O)[C@@H](NC(=O)N[C@H](C(=O)O)C(C)C)[C@H]1CCNC(=N)N1)C(=O)NCCCN[C@H](C(=O)O)[C@H](O[C@@H]1O[C@H](CN)[C@@H](O)[C@H]1O)[C@H]1O[C@@H](n2ccc(=O)[nH]c2=O)[C@H](O)[C@@H]1O` , please.
> 64 mg/L

Then what about the molecule `CCCCCCCCC(=O)NCCCCCC(=O)NCCCN[C@H](C(=O)O)[C@H](O[C@@H]1O[C@H](CN)[C@@H](O)[C@H]1O)[C@H]1O[C@@H](n2ccc(=O)[nH]c2=O)[C@H](O)[C@@H]1O` ?
> 64 mg/L

Also check `N=C(N)NCCCCCC(=O)NCCCCCC(=O)NCCCN[C@H](C(=O)O)[C@H](O[C@@H]1O[C@H](CN)[C@@H](O)[C@H]1O)[C@H]1O[C@@H](n2ccc(=O)[nH]c2=O)[C@H](O)[C@@H]1O`
> 64 mg/L

What do you get for `CCCCCCCCCCC(=O)N[C@@H](CCCNC(=N)N)C(=O)NCCCN[C@H](C(=O)O)[C@H](O[C@@H]1O[C@H](CN)[C@@H](O)[C@H]1O)[C@H]1O[C@@H](n2ccc(=O)[nH]c2=O)[C@H](O)[C@@H]1O` ?
> 64 mg/L
